# Test system: SIK;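 also: KINOMEscan kinase panel screen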
# Reported Conditions: concentration: 1 μM, replicates: in singlicate; n = 1
Parameter: %Inh

CN1CCN(CCCNc2nccc(-c3c(-c4ccc(F)cc4)nn4cc(C(F)(F)F)ccc34)n2)CC1    0%

Look up %Inh for this compound: `CC(=O)Nc1nc2cnc(Nc3cc(NC(=O)c4cccc(C5(C#N)CC5)c4Cl)ccc3C)nc2s1` 29%

Look up %Inh for this compound: `COc1cccc(-c2ccc3c(NC(=O)C4CC4)n[nH]c3n2)c1` 0%

Look up %Inh for this compound: `O=C(Nc1cccc(-c2nn3ccccc3c2-c2ccnc(Nc3cccc(C(F)(F)F)c3)n2)c1)c1c(F)cccc1F` 9%

Look up %Inh for this compound: `O=C(O)C(F)(F)F.O=C(O)C(F)(F)F.O=c1[nH]ccc2nc(N[C@@H]3CCCNC3)nc(Nc3ccc(S(=O)(=O)N4CCOCC4)cc3)c12` 78%

Look up %Inh for this compound: `CC(=O)N1CCN(c2ccc(Nc3nccc(-c4sc(C(C)C)nc4-c4cccc(NS(=O)(=O)c5cccc(Cl)c5)c4)n3)cn2)CC1` 99%

Look up %Inh for this compound: `FC(F)(F)c1ccc(/C=C/c2cncnc2Nc2ccc3[nH]c(Cc4ccccc4)nc3c2)cc1` 20%

Where do these numbers come from? They come from paper PMC5540273.
